Test system: FGFR2 (human), P21802 [N549H]
Sequence (P21802 whole entry N549H, looked up): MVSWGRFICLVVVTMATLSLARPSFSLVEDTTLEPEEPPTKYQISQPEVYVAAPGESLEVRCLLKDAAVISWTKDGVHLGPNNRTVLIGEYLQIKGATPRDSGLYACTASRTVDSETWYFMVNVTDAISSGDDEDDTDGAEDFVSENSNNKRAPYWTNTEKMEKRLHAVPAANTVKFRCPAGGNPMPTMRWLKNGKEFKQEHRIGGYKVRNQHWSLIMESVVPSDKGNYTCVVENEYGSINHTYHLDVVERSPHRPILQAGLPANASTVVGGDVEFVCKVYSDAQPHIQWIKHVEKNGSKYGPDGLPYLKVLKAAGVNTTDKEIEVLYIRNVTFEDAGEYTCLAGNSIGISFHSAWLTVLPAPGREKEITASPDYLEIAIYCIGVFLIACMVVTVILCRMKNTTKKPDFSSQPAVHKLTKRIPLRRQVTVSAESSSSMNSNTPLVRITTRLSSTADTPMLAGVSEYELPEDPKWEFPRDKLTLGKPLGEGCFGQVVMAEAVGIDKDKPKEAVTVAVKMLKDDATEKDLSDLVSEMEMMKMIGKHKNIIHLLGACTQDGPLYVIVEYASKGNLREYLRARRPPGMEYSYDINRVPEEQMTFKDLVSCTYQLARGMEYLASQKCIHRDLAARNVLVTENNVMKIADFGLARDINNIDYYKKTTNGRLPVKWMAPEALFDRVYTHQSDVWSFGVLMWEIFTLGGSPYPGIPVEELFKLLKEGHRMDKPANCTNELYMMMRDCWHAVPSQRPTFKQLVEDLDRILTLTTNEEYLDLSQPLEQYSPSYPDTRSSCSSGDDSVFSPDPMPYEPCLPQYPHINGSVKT
method: Caliper, Mobility shift assay off-chip
reported_conditions: compound 0.1 µM
measure: inhibition (%)

Sample answers from the record:
GET /values?item= `CN(c1ccc2ccc3ncc(-c4cnn(C)c4)cc3c(=O)c2c1)S(=O)(=O)NCc1ccccn1` &system= FGFR2 (human), P21802 [N549H] returns inhibition: 16

Reported FGFR2 (human), P21802 [N549H] inhibition for item `Cn1cc(-c2cnc3ccc4ccc(CS(N)(=O)=O)cc4c(=O)c3c2)cn1` was 15.5

(A) Cn1cc(-c2cnc3ccc4ccc(CS(=O)(=O)NC5CCCCC5)cc4c(=O)c3c2)cn1
(B) Cn1cc(-c2cnc3ccc4ccc(CS(=O)(=O)NCC5CCCCN5)cc4c(=O)c3c2)cn1 (configuration not stated)
(C) O=C(CCc1ccc2ccc3ncc(C4CCNCC4)cc3c(=O)c2c1)NCc1ccccn1
(D) O=c1c2cc(CS(=O)(=O)NCc3ccccn3)ccc2ccc2ncc(C3CCNCC3)cc12
(E) Cn1cc(-c2cnc3ccc4ccc(CS(=O)(=O)CCc5ccccn5)cc4c(=O)c3c2)cn1
Input line: # sort list by recorded inhibition, greatest to least Provide your answer as the labels ordered per the instruction.
Output line: A, E, D, B, C

Numbers sourced from the kinase profiling compilation of Christmann-Franck et al. (2016).
